Data origin: patent US11319299B2

Exercise: for every item that follows, state its recorded pKd.
# system-tested: WDR5 (Homo sapiens (Human), UniProt P61964)
# protocol-description: Surface Plasmon Resonance (SPR) assay, KD and residence time
# Assay type: binding
# experimental-conditions: surface plasmon resonance (SPR); read-out: WDR5 binding affinity (KD)
Just the number, please; pKd means minus log10 of the concentration in mol/L.

Query: Bench note: what pKd did CC(C)OC(=O)N1CCC=C(c2cc(NC(=O)c3c[nH]c(=O)cc3C(F)(F)F)c(N3C[C@@H](C)N(C)[C@@H](C)C3)cc2F)C1 [Example 601] show?
Reply: 9.57

Query: Bench note: what pKd did C[C@@H]1CN(c2ncc(-c3cc(NC(=O)c4cn(C)c(=O)cc4C(F)(F)F)c(N4CC[C@@H](N(C)C)C4)cc3F)cn2)C[C@H](C)O1 (racemic) [Example 426] show?
Reply: 7.96

Query: Bench note: what pKd did C[C@@H]1CN(c2cc(F)c(C3=CCCN(c4ncccn4)C3)cc2NC(=O)c2c[nH]c(=O)cc2C(F)F)C[C@H](C)N1C [Example 644] show?
Reply: 8.88

Query: Bench note: what pKd did C[C@@H]1CN(c2cc(F)c(-c3cnc(N4CCOC(C)(C)C4)nc3)cc2NC(=O)c2ccc(F)cc2C(F)(F)F)C[C@H](C)N1C [Example 559] show?
Reply: 8.53

Query: Bench note: what pKd did C[C@@H]1CN(c2cc(F)c(-c3csc(C(=O)NCC4CC4)n3)cc2NC(=O)c2c[nH]c(=O)cc2C(F)(F)F)C[C@H](C)N1C [Example 531] show?
Reply: 8.97

Query: Bench note: what pKd did C[C@@H]1CN(c2cc(F)c(-c3csc(CN4CCOCC4)c3)cc2NC(=O)c2c[nH]c(=O)cc2C(F)(F)F)C[C@H](C)N1C [Example 494] show?
Reply: 8.52

Query: Bench note: what pKd did C[C@@H]1CN(c2ncc(-c3cc(NC(=O)c4cn(C)c(=O)cc4C(F)(F)F)c(N4CCN(C)[C@H](C)C4)cc3F)cn2)CCO1 (stereo in doubt) [Example 450] show?
Reply: 8.99

Query: Bench note: what pKd did C[C@@H]1CN(c2cc(F)c(-c3csc(C(=O)NC4CCCCC4)n3)cc2NC(=O)c2c[nH]c(=O)cc2C(F)(F)F)C[C@H](C)N1C [Example 533] show?
Reply: 8.70

Query: Bench note: what pKd did C[C@@H]1CN(c2cc(F)c(C3=CCCN(C(=O)OC4CC(F)(F)C4)C3)cc2NC(=O)c2c[nH]c(=O)cc2C(F)F)C[C@H](C)N1C [Example 704] show?
Reply: 8.57

Query: Bench note: what pKd did CC1CN(c2cc(F)c(-c3cnc(N4CCC(C)(O)CC4)nc3)cc2NC(=O)c2c[nH]c(=O)cc2C(F)(F)F)CCN1C (stereo in doubt) [Example 424] show?
Reply: 9.22

Query: Bench note: what pKd did C[C@@H]1CN(c2cc(F)c(C3=CCCN(C(=O)OC4(C)CCC4)CC3)cc2NC(=O)c2c[nH]c(=O)cc2C(F)(F)F)C[C@H](C)N1C [Example 699] show?
Reply: 8.43

Query: Bench note: what pKd did C[C@@H]1CN(c2cc(F)c(-c3cc(F)c(C(=O)NC4CCCCC4(C)C)c(F)c3)cc2NC(=O)c2c[nH]c(=O)cc2C(F)(F)F)C[C@H](C)N1C (stereo partly shown) [Example 711] show?
Reply: 8.50

Query: Bench note: what pKd did C[C@@H]1CN(c2cc(F)c(-c3ccc(F)c(C(N)=O)c3)cc2NC(=O)c2c[nH]c(=O)cc2C(F)F)C[C@H](C)N1C [Example 552] show?
Reply: 8.51

Query: Bench note: what pKd did C[C@@H]1CN(c2cc(F)c(-c3ccc4scnc4c3)cc2NC(=O)c2cn(C)c(=O)cc2C(F)F)C[C@H](C)N1C [Example 683] show?
Reply: 7.91

Query: Bench note: what pKd did C[C@@H]1CN(c2cc(F)c(-c3cccs3)cc2NC(=O)c2c[nH]c(=O)cc2C(F)(F)F)C[C@H](C)N1C [Example 492] show?
Reply: 8.47

Query: Bench note: what pKd did CC1CN(c2cc(F)c(-c3ccc(N4CCOCC4)c(F)c3)cc2NC(=O)c2c[nH]c(=O)cc2C(F)F)CCN1C (stereo in doubt) [Example 448] show?
Reply: 9.00
